# study_target: T1, SNTG2, Q9NY99
# T1 sequence (Q9NY99 68-166, limits assumed, looked up): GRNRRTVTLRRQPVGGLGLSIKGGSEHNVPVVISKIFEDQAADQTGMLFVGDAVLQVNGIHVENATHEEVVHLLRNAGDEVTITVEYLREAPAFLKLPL
# experiment_summary: holdup assay
# Parameters: key: below the threshold = too weak to quantify, mostly under pKd 3.1 to 4
# measurement_parameters: plain residues with an end cap or a label only (N-terminal biotin on a linker: ttds)

[
  {
    "binder": "SGSRPSATVV [HPV73-E6, Q82005]",
    "pKd": "below the threshold"
  },
  {
    "binder": "FHPLGADSQV [SLC2A1, P11166]",
    "pKd": "below the threshold"
  },
  {
    "binder": "PRVKPQRSKV [PPP1R13L, Q8WUF5]",
    "pKd": "below the threshold"
  }
]

The reported measurements were obtained from paper PMC9482650.
